System: SW80p105
Assay: Activity against human colon tumor cells (MTT assay, 3 day drug exposure)
Format: cell-based
Settings: cells plated 24 hr. prior to drug addition, read-out: Concentration for 50% inhibition of colony formation for human colon tumors
Give measured IC50 for each item. Keep answers brief.

1) CN(C)CCN1C(=O)c2cccc3cc4ccccc4c(c23)C1=O : 150 nM
2) O=C1c2cccc3cc4ccccc4c(c23)C(=O)N1CCCN(CCO)CCO : 1300 nM
3) CN(C)c1ccc(N2C(=O)c3cccc4cc5ccccc5c(c34)C2=O)cc1 : 750 nM
4) CN(C)CCN1C(=O)c2cccc3cc4cccc([N+](=O)[O-])c4c(c23)C1=O : 2500 nM

Now consider the entry below.
In: Consider the molecule shown here: CN(C)CCN1C(=O)c2cccc3cc4cccc(N)c4c(c23)C1=O What is its recorded IC50?
Out: 3100 nM

###

System: SW80p105
Assay: Activity against human colon tumor cells (MTT assay, 3 day drug exposure)
Format: cell-based
Conditions: cells plated 24 hr. prior to drug addition, read-out: Concentration for 50% inhibition of colony formation for human colon tumors
Give measured IC50 for each item. Keep answers brief.
Give bare numbers, in nM.

1) O=C1c2cccc3cc4ccccc4c(c23)C(=O)N1CCN1CCCCC1 : 1000
2) CN(C)CCN1C(=O)c2cccc3cc(N)cc(c23)C1=O [Amonafide] : 570
3) CCN1CCCC(N2C(=O)c3cccc4cc5ccccc5c(c34)C2=O)C1 (centres unmarked) : 3000
4) CN(C)CCCN1C(=O)c2cccc3cc4ccccc4c(c23)C1=O : 1300

Now consider the entry below.
In: Consider the compound shown here: O=C1c2cccc3cc4ccccc4c(c23)C(=O)N1CCN1CCCC1 What is its recorded IC50?
Out: 900
